Tested on: L. amazonensis (MHOM/Br/79/Maria) promastigotes
Assay remarks: In vitro promastigote susceptibility assay (resazurin)
Type: cell-based
Test context: Leishmania amazonensis; L. amazonensis promastigotes, 48 h at 26 °C, triplicate; N/A = not active at 100 μg/mL
Exam item: assign Criterion met to entries whose IC50 is below 50 µM and Criterion not met to entries at or above 50 µM. Note that a value of exactly 50 µM receives Criterion not met.

The examples below pair each entry with its known result.
>  <Compound>
O=C(c1ccc(C(F)(F)F)cc1)c1cccn1-c1ncccn1 [5ai]

>  <Group>
Criterion met

$$$$
>  <Compound>
CC(C)(C)c1ccc(C(=O)c2cccn2-c2ncccn2)cc1 [5ac]

>  <Group>
Criterion met

$$$$
>  <Compound>
Cc1cccnc1-n1cccc1C(=O)c1ccc(F)cc1 [5bd]

>  <Group>
Criterion met

$$$$

-- ask Just wondering, is IC50 of O=C(c1ccc(Br)cc1)c1cccn1-c1ncccn1 [5af] below 50 µM?
-- reply Criterion not met

-- ask Hi there! Is IC50 for COc1cc(OC)cc(C(=O)c2cccn2-c2ncccn2)c1 [5aj] below 50 µM, do you know?
-- reply Criterion met

-- ask For Cc1cccnc1-n1cccc1C(=O)c1ccc(C(C)(C)C)cc1 [5bc] , is the recorded IC50 below the cut-off of 50 µM?
-- reply Criterion met
